tested on: Staphylococcus aureus ATCC29213; test: Minimum Inhibitory Concentration (MIC) testing, broth microdilution, Staphylococcus aureus; format: cell-based; settings: Staphylococcus aureus ATCC29213; read-out: Staphylococcus aureus MICs Activity
We begin with a simple list: items and their reported MIC.
value.kind: MIC

> print(dat)
                                    compound                    tested.system  recorded.measurement
 1          Cc1ccc(COc2ccc(F)c(C(N)=O)c2F)o1  Staphylococcus aureus ATCC29213            > 64 µg/mL
 2              NC(=O)c1cccc(OCCC2CCCCCC2)c1  Staphylococcus aureus ATCC29213            > 64 µg/mL
 3  NC(=O)c1c(F)ccc(OCc2nc3cc(Oc4ccccc4)ccc3s2)c1F  Staphylococcus aureus ATCC29213             < 8 µg/mL
 4          NC(=O)c1cccc(OCC(=O)OC2CCCCC2)c1  Staphylococcus aureus ATCC29213            > 64 µg/mL
 5  Cc1ccc(-c2nc(CCOc3ccc(F)c(C(N)=O)c3F)c(C)o2)cc1  Staphylococcus aureus ATCC29213             < 8 µg/mL
 6  CCc1ccc(-c2noc(COc3ccc(F)c(C(N)=O)c3F)n2)cc1  Staphylococcus aureus ATCC29213             < 8 µg/mL
 7            CCCCCCOc1c(F)cc(F)c(C(N)=O)c1F  Staphylococcus aureus ATCC29213        16 to 64 µg/mL
 8  NC(=O)c1c(F)ccc(OCc2csc(-c3ccc(F)cc3)n2)c1F  Staphylococcus aureus ATCC29213             < 8 µg/mL
 9  NC(=O)c1c(F)ccc(OCc2nc(-c3ccccc3Cl)cs2)c1F  Staphylococcus aureus ATCC29213             < 8 µg/mL
10  NC(=O)c1c(F)ccc(OCc2nc(-c3ccc(OC(F)(F)F)cc3)no2)c1F  Staphylococcus aureus ATCC29213             < 8 µg/mL
11  NC(=O)c1c(F)ccc(OCc2nc(-c3cccc(O)c3)no2)c1F  Staphylococcus aureus ATCC29213             < 8 µg/mL
12      NC(=O)c1c(F)ccc(OCc2nnc(C3CC3)s2)c1F  Staphylococcus aureus ATCC29213            > 64 µg/mL
13  CCCCCCCCOc1cccc(C(N)=O)c1 [Example 19, 3-(Octyloxy)benzenecarboxamide]  Staphylococcus aureus ATCC29213             < 8 µg/mL
14   COc1ccc2sc(COc3ccc(F)c(C(N)=O)c3F)nc2c1  Staphylococcus aureus ATCC29213             < 8 µg/mL
15  CCCCCCOCCOc1cccc(C(N)=O)c1 [Example 54, 3-[2-(Hexyloxy)ethoxy]benzenecarboxamide]  Staphylococcus aureus ATCC29213        16 to 64 µg/mL
16  COc1ccc(Br)c(-c2csc(COc3ccc(F)c(C(N)=O)c3F)n2)c1  Staphylococcus aureus ATCC29213             < 8 µg/mL
17  CCCC(C)COc1cccc(C(N)=O)c1 (stereo not shown)  Staphylococcus aureus ATCC29213        16 to 64 µg/mL
18  COc1ccc2ccc(COc3ccc(F)c(C(N)=O)c3F)nc2c1  Staphylococcus aureus ATCC29213             < 8 µg/mL
19  CCCCCCOc1cccc(C(N)=O)c1 [Example 8, 3-(Hexyloxy)benzenecarboxamide]  Staphylococcus aureus ATCC29213        16 to 64 µg/mL

###

test system: Staphylococcus aureus ATCC29213; assay: Minimum Inhibitory Concentration (MIC) testing, broth microdilution, Staphylococcus aureus; type: cell-based; details: Staphylococcus aureus ATCC29213; read-out: Staphylococcus aureus MICs Activity
We begin with a simple list: items and their reported MIC.
value.kind: MIC

> print(dat)
                                   compound  recorded.measurement
1  Cc1ccc(OCc2noc(COc3ccc(F)c(C(N)=O)c3F)n2)cc1        16 to 64 µg/mL
2   COC(=O)c1cccc(COc2ccc(F)c(C(N)=O)c2F)c1        16 to 64 µg/mL
3  COc1cccc(-c2noc(COc3ccc(F)c(C(N)=O)c3F)n2)c1        16 to 64 µg/mL
4  CCC(C)CCOc1cccc(C(N)=O)c1 (centres unmarked)        16 to 64 µg/mL
5  COc1ccc(-c2nc(COc3ccc(F)c(C(N)=O)c3F)sc2-c2ccc(O)cc2)cc1             < 8 µg/mL

###

system: Staphylococcus aureus ATCC29213; experiment: Minimum Inhibitory Concentration (MIC) testing, broth microdilution, Staphylococcus aureus; format: cell-based; details: Staphylococcus aureus ATCC29213; read-out: Staphylococcus aureus MICs Activity
We begin with a simple list: items and their reported MIC.
value.kind: MIC

> print(dat)
                                    compound  recorded.measurement
 1          Cc1csc(COc2ccc(F)c(C(N)=O)c2F)c1        16 to 64 µg/mL
 2  CCCCCCOc1cccc(C(N)=O)c1O [Example 166, 2-Hydroxy-3-Hexoxy-benzamide]            > 64 µg/mL
 3               CCCCCCOc1c(F)ccc(C(N)=O)c1F        16 to 64 µg/mL
 4          Cc1cc(COc2ccc(F)c(C(N)=O)c2F)no1            > 64 µg/mL
 5  NC(=O)c1c(F)ccc(OCc2cccc(-c3ccccc3)c2)c1F             < 8 µg/mL
 6            CCCCCCOCCOc1ccc(F)c(C(N)=O)c1F             < 8 µg/mL
 7  COc1ccc(-c2nc(COc3ccc(F)c(C(N)=O)c3F)sc2-c2cscn2)cc1             < 8 µg/mL
 8  NC(=O)c1c(F)ccc(OCc2nc(-c3ccc(F)cc3)no2)c1F             < 8 µg/mL
 9  NC(=O)c1c(F)ccc(OCc2nc(-c3ccc(O)cc3)co2)c1F             < 8 µg/mL
10  N#Cc1ccc(-c2nc(COc3ccc(F)c(C(N)=O)c3F)sc2Br)cc1             < 8 µg/mL

###

system: Staphylococcus aureus ATCC29213; assay: Minimum Inhibitory Concentration (MIC) testing, broth microdilution, Staphylococcus aureus; format: cell-based; details: Staphylococcus aureus ATCC29213; read-out: Staphylococcus aureus MICs Activity
We begin with a simple list: items and their reported MIC.
value.kind: MIC

> print(dat)
                                    compound                    tested.system  recorded.measurement
 1  NC(=O)c1c(F)ccc(OCc2csc(-c3cccc(O)c3)n2)c1F  Staphylococcus aureus ATCC29213        16 to 64 µg/mL
 2       NC(=O)c1ccnc(OCc2nc3cc(Cl)ccc3s2)c1  Staphylococcus aureus ATCC29213             < 8 µg/mL
 3  CC(C)=CCC/C(C)=C/CCC(C)COc1cccc(C(N)=O)c1 (centres unmarked)  Staphylococcus aureus ATCC29213             < 8 µg/mL
 4  NC(=O)c1c(F)ccc(OCc2cc3cc(C(F)(F)F)ccc3s2)c1F  Staphylococcus aureus ATCC29213             < 8 µg/mL
 5  COc1ccc(-c2nc(COc3ccc(F)c(C(N)=O)c3F)sc2-c2ccncc2)cc1  Staphylococcus aureus ATCC29213             < 8 µg/mL
 6          Cc1csc(COc2ccc(F)c(C(N)=O)c2F)n1  Staphylococcus aureus ATCC29213        16 to 64 µg/mL
 7  NC(=O)c1c(F)ccc(OCc2cccc(Oc3ccccc3)c2)c1F  Staphylococcus aureus ATCC29213             < 8 µg/mL
 8  NC(=O)c1c(F)ccc(OCc2nc(-c3ccccn3)cs2)c1F  Staphylococcus aureus ATCC29213             < 8 µg/mL
 9  COc1ccc(-c2nc(COc3ccc(F)c(C(N)=O)c3F)sc2-c2ccccc2)cc1  Staphylococcus aureus ATCC29213             < 8 µg/mL
10  NC(=O)c1c(F)ccc(OCc2nc(-c3ccc(Cl)cc3)no2)c1F  Staphylococcus aureus ATCC29213             < 8 µg/mL
11  COc1ccc2nc(COc3ccc(F)c(C(N)=O)c3F)ccc2c1  Staphylococcus aureus ATCC29213        16 to 64 µg/mL
12  COc1ccc(-c2nc(COc3ccc(F)c(C(N)=O)c3F)sc2-c2ccc(OC)cc2)cc1  Staphylococcus aureus ATCC29213             < 8 µg/mL
13  NC(=O)c1c(F)ccc(OCc2ccc3ccc(Cl)cc3n2)c1F  Staphylococcus aureus ATCC29213             < 8 µg/mL
14  C/C=C/COc1cccc(C(N)=O)c1 [Example 30, 3-[2-Butenyloxy]benzenecarboxamide]  Staphylococcus aureus ATCC29213            > 64 µg/mL
15  C#CCCCCCCCCOc1cccc(C(N)=O)c1 [Example 67, 3-(9-Decynyloxy)benzenecarboxamide]  Staphylococcus aureus ATCC29213             < 8 µg/mL
16  COc1cccc(-c2ccc3sc(COc4ccc(F)c(C(N)=O)c4F)nc3c2)c1  Staphylococcus aureus ATCC29213             < 8 µg/mL
17          CCCCOC(=O)COc1ccc(F)c(C(N)=O)c1F  Staphylococcus aureus ATCC29213        16 to 64 µg/mL
18   NC(=O)c1c(F)ccc(OCc2nc(-c3nccs3)no2)c1F  Staphylococcus aureus ATCC29213        16 to 64 µg/mL
19  NC(=O)c1c(F)ccc(OCc2nc(-c3ccc4c(c3)OCO4)no2)c1F  Staphylococcus aureus ATCC29213             < 8 µg/mL
20  CCCCCCCCCCOc1ccc(F)c(C(N)=O)c1 [Example 71, 2-Fluoro-5-(decyloxy)benzenecarboxamide]  Staphylococcus aureus ATCC29213             < 8 µg/mL
21  NC(=O)c1c(F)ccc(OCc2nc3cc(-c4cccc(O)c4)ccc3s2)c1F  Staphylococcus aureus ATCC29213             < 8 µg/mL
22  CCCC/C=C\CCCCOc1cccc(C(N)=O)c1 [Example 45, 3-[(Z)-5-Decenyloxy]benzenecarboxamide]  Staphylococcus aureus ATCC29213             < 8 µg/mL
23   NC(=O)c1c(F)ccc(OCc2nnc(-c3cccs3)o2)c1F  Staphylococcus aureus ATCC29213        16 to 64 µg/mL
24  Cc1oc(-c2ccc(Cl)cc2)nc1COc1ccc(F)c(C(N)=O)c1F  Staphylococcus aureus ATCC29213             < 8 µg/mL
25     C#CCCCCCCOC(=O)COc1ccc(F)c(C(N)=O)c1F  Staphylococcus aureus ATCC29213             < 8 µg/mL
26  Cc1ccc(-c2nc(COc3ccc(F)c(C(N)=O)c3F)cs2)cc1  Staphylococcus aureus ATCC29213             < 8 µg/mL

The measured values listed here are drawn from patent US8088791B2.
